The following sequences are listed with their measured RNAcompete 7-mer binding Z-score values.
Tested on: RBM10 RRM1-ZnF-RRM2 (GST-tagged construct);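 note: 20 pmol protein with 1.5 nmol RNA pool for 30 min at 4°C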
EXPERIMENT SUMMARY: RNAcompete 7-mer binding Z-score; higher = stronger binding preference
Over roughly 16,000 sequences, “Z-score” has its median near -0.37; the highest 2% begin near 3.1. The entries come from a sample that favours the highest values as a whole.
OBSERVED PROPERTY: RNAcompete 7-mer binding Z-score

INSERT INTO results (sequence_record, observed_property, test_value) VALUES
  ('UGUCAGA', 'RNAcompete 7-mer binding Z-score', -0.402),
  ('UAGGGUU', 'RNAcompete 7-mer binding Z-score', 3.14),
  ('AGAAGGC', 'RNAcompete 7-mer binding Z-score', 1.17),
  ('UUCAAUA', 'RNAcompete 7-mer binding Z-score', -0.151),
  ('CAUUUGC', 'RNAcompete 7-mer binding Z-score', -1.04),
  ('AUUCUCC', 'RNAcompete 7-mer binding Z-score', -0.679),
  ('CAAUAGG', 'RNAcompete 7-mer binding Z-score', 1.3),
  ('CAGGGUU', 'RNAcompete 7-mer binding Z-score', 2.05),
  ('UCGGGUU', 'RNAcompete 7-mer binding Z-score', 0.916),
  ('CCGAUCU', 'RNAcompete 7-mer binding Z-score', -0.938),
  ('UUCAUUU', 'RNAcompete 7-mer binding Z-score', -0.737),
  ('GAGGGUU', 'RNAcompete 7-mer binding Z-score', 2.88),
  ('GGGUGAU', 'RNAcompete 7-mer binding Z-score', 3.16),
  ('GUGGAAU', 'RNAcompete 7-mer binding Z-score', 2.34),
  ('ACAUCCU', 'RNAcompete 7-mer binding Z-score', -0.839),
  ('CGGUGAA', 'RNAcompete 7-mer binding Z-score', 0.723),
  ('AUUCGGA', 'RNAcompete 7-mer binding Z-score', 0.243),
  ('AUAUACC', 'RNAcompete 7-mer binding Z-score', -0.628),
  ('GGGUGAC', 'RNAcompete 7-mer binding Z-score', 2.92),
  ('UCUAAUG', 'RNAcompete 7-mer binding Z-score', -0.577),
  ('CUUGGGG', 'RNAcompete 7-mer binding Z-score', 1.13),
  ('CAGGGUA', 'RNAcompete 7-mer binding Z-score', 2.88),
  ('AAGGUAA', 'RNAcompete 7-mer binding Z-score', 3.65),
  ('GGAAGGA', 'RNAcompete 7-mer binding Z-score', 4.61),
  ('CCAAGGG', 'RNAcompete 7-mer binding Z-score', 1.05),
  ('AUCAGCA', 'RNAcompete 7-mer binding Z-score', -0.395),
  ('GAUUGGC', 'RNAcompete 7-mer binding Z-score', 0.927),
  ('CGAAGUU', 'RNAcompete 7-mer binding Z-score', -0.235),
  ('CACAAGA', 'RNAcompete 7-mer binding Z-score', -0.391),
  ('GGUUGGC', 'RNAcompete 7-mer binding Z-score', 2.03),
  ('GGAAGGU', 'RNAcompete 7-mer binding Z-score', 3.94),
  ('GCAAGGG', 'RNAcompete 7-mer binding Z-score', 3.28),
  ('GAGGGUG', 'RNAcompete 7-mer binding Z-score', 3.5),
  ('ACACCCU', 'RNAcompete 7-mer binding Z-score', -0.941),
  ('GCCAUGU', 'RNAcompete 7-mer binding Z-score', -0.632),
  ('GAUAUGG', 'RNAcompete 7-mer binding Z-score', 3.32),
  ('AUCGCAA', 'RNAcompete 7-mer binding Z-score', -0.388),
  ('AGCUCAG', 'RNAcompete 7-mer binding Z-score', -0.486),
  ('GGUGCCC', 'RNAcompete 7-mer binding Z-score', 0.0495),
  ('AAAGAAC', 'RNAcompete 7-mer binding Z-score', -0.0343),
  ('GAUUGGG', 'RNAcompete 7-mer binding Z-score', 3.64),
  ('CCAUAGA', 'RNAcompete 7-mer binding Z-score', -0.464),
  ('AAGGUAU', 'RNAcompete 7-mer binding Z-score', 2.03),
  ('UGAAGGG', 'RNAcompete 7-mer binding Z-score', 3.56),
  ('ACCAGGU', 'RNAcompete 7-mer binding Z-score', 0.399),
  ('GGAUUGU', 'RNAcompete 7-mer binding Z-score', 0.822),
  ('AGAAGAA', 'RNAcompete 7-mer binding Z-score', 1),
  ('GGUAUGG', 'RNAcompete 7-mer binding Z-score', 4.03),
  ('UAGGGUA', 'RNAcompete 7-mer binding Z-score', 4.16),
  ('CGAUUGG', 'RNAcompete 7-mer binding Z-score', 0.825),
  ('GUAAGUC', 'RNAcompete 7-mer binding Z-score', -0.0743),
  ('CCAUUUU', 'RNAcompete 7-mer binding Z-score', -1.08),
  ('AUAGUGG', 'RNAcompete 7-mer binding Z-score', 1.69),
  ('UGGUAAG', 'RNAcompete 7-mer binding Z-score', 1.73),
  ('GGUAUGU', 'RNAcompete 7-mer binding Z-score', 1.33),
  ('AAGUUUU', 'RNAcompete 7-mer binding Z-score', -0.329),
  ('CGUUGGA', 'RNAcompete 7-mer binding Z-score', 0.548),
  ('CGAAGGA', 'RNAcompete 7-mer binding Z-score', 1.62),
  ('AGUUCAA', 'RNAcompete 7-mer binding Z-score', -0.311),
  ('AAGGUAG', 'RNAcompete 7-mer binding Z-score', 3.82),
  ('UCGGGUA', 'RNAcompete 7-mer binding Z-score', 1.57),
  ('GGCAUGC', 'RNAcompete 7-mer binding Z-score', 0.228),
  ('GGAAGGC', 'RNAcompete 7-mer binding Z-score', 3.04),
  ('CUGUGUA', 'RNAcompete 7-mer binding Z-score', -0.417),
  ('UUACUGC', 'RNAcompete 7-mer binding Z-score', -0.799),
  ('CUCGCGU', 'RNAcompete 7-mer binding Z-score', -0.635),
  ('GGAUAGA', 'RNAcompete 7-mer binding Z-score', 2.48),
  ('AUUGGGU', 'RNAcompete 7-mer binding Z-score', 2.74),
  ('UCGGGUC', 'RNAcompete 7-mer binding Z-score', 0.512),
  ('UAAUAGG', 'RNAcompete 7-mer binding Z-score', 0.742),
  ('AUUGGGG', 'RNAcompete 7-mer binding Z-score', 3.16),
  ('CGAGGUA', 'RNAcompete 7-mer binding Z-score', 1.8),
  ('GCAAGGA', 'RNAcompete 7-mer binding Z-score', 2.65),
  ('CACUGAG', 'RNAcompete 7-mer binding Z-score', -0.209),
  ('GGUGUCG', 'RNAcompete 7-mer binding Z-score', 1.21),
  ('AAGGGUA', 'RNAcompete 7-mer binding Z-score', 4.27),
  ('GUUAUCU', 'RNAcompete 7-mer binding Z-score', -0.395),
  ('UCGGUUG', 'RNAcompete 7-mer binding Z-score', 0.286),
  ('CGGUGAG', 'RNAcompete 7-mer binding Z-score', 1.64),
  ('GAAUAGG', 'RNAcompete 7-mer binding Z-score', 3.18),
  ('CUCGAAG', 'RNAcompete 7-mer binding Z-score', -0.318),
  ('AUGCAUC', 'RNAcompete 7-mer binding Z-score', -0.362),
  ('UGAAGGA', 'RNAcompete 7-mer binding Z-score', 2.95),
  ('CCUCCAA', 'RNAcompete 7-mer binding Z-score', -0.857),
  ('GAUCGCG', 'RNAcompete 7-mer binding Z-score', -0.0925),
  ('CUGUCCU', 'RNAcompete 7-mer binding Z-score', -0.817),
  ('GGGUCUG', 'RNAcompete 7-mer binding Z-score', 0.993),
  ('AGAAGGA', 'RNAcompete 7-mer binding Z-score', 4.29),
  ('GCAAGGU', 'RNAcompete 7-mer binding Z-score', 2.17),
  ('AAGCUCA', 'RNAcompete 7-mer binding Z-score', -0.635),
  ('CGGUGUA', 'RNAcompete 7-mer binding Z-score', 0.873),
  ('GGUAUGA', 'RNAcompete 7-mer binding Z-score', 1.89),
  ('GAGGGUC', 'RNAcompete 7-mer binding Z-score', 1.39),
  ('CAGGUAG', 'RNAcompete 7-mer binding Z-score', 2.68);

----------
Test system: RBM10 RRM1-ZnF-RRM2 (GST-tagged construct);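 note: 20 pmol protein with 1.5 nmol RNA pool for 30 min at 4°C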
EXPERIMENT SUMMARY: RNAcompete 7-mer binding Z-score; higher = stronger binding preference
The full ranking holds about 16,000 sequences; the median of “Z-score” is about -0.37, and the highest 2% start at about 3.1. What follows is part of a selection rich in the highest values, with near analogues and random picks from the rest.
The following sequences are listed with their measured RNAcompete 7-mer binding Z-score values.
OBSERVED PROPERTY: RNAcompete 7-mer binding Z-score

INSERT INTO results (sequence_record, test_value) VALUES
  ('AGUAGGA', 3.08),
  ('AUUCCCC', -0.613),
  ('AGGGAUC', 1.32),
  ('GGUGGAU', 2.46),
  ('AACCAGU', -0.235),
  ('AAUAGGA', 1.57),
  ('AGGAGGC', 1.72),
  ('GGGGAGG', 3.33),
  ('GGGGAGA', 2.53),
  ('AGUGGAA', 3.21),
  ('GGUGAGG', 4.3),
  ('AGGAGGG', 3.31),
  ('AUAAGCU', -0.391),
  ('CGUGGAA', 1.29),
  ('GGGGAUA', 3.16),
  ('GGGAGCG', 3.23),
  ('ACAAUCU', -0.795),
  ('GGUAGGC', 2.65),
  ('AGAUGCU', -0.777),
  ('GGUGAGA', 2.68),
  ('CGGAGGG', 2.92),
  ('CGUAGAG', 0.636),
  ('AGGGAUA', 4.38),
  ('CGGGAUA', 1.44),
  ('CCUACAG', -0.752),
  ('CAUGAGG', 1.35),
  ('ACUCACG', -0.708),
  ('UGUGGCC', 0.0459),
  ('GGGGAGU', 2.86),
  ('GUCCGUA', -0.471),
  ('GGUGGAG', 3.9),
  ('UACUCGC', -0.548),
  ('GAGAGGG', 2.75),
  ('GGGAGCC', 0.891),
  ('UGGGAGU', 1.95),
  ('AGGGAGG', 3.18),
  ('GAUGAGU', 1.01),
  ('UAUAGGG', 2.76),
  ('GCAGGAU', 1.22),
  ('GGUAGAG', 3.68),
  ('CAUAGGA', 0.756),
  ('AGGGAGU', 3.13),
  ('CUAGAUU', -0.661),
  ('UCAAUGG', 1.28),
  ('UGGGAGA', 2.56),
  ('CGUGAGG', 1.73),
  ('UGGAGGC', 2.16);

Data provenance: the supplement of paper PMC5499739
